The following compounds are shown together with reported Relative binding affinity to the human estradiol (E) receptor values.
Molecular target: human estradiol (E) receptor (Homo sapiens, UniProt P03372)
Construct: present in human breast tumor cells (MCF-7 cells); endogenous in cells; host or cells: MCF-7 human breast tumor cells
Sequence (P03372 whole entry): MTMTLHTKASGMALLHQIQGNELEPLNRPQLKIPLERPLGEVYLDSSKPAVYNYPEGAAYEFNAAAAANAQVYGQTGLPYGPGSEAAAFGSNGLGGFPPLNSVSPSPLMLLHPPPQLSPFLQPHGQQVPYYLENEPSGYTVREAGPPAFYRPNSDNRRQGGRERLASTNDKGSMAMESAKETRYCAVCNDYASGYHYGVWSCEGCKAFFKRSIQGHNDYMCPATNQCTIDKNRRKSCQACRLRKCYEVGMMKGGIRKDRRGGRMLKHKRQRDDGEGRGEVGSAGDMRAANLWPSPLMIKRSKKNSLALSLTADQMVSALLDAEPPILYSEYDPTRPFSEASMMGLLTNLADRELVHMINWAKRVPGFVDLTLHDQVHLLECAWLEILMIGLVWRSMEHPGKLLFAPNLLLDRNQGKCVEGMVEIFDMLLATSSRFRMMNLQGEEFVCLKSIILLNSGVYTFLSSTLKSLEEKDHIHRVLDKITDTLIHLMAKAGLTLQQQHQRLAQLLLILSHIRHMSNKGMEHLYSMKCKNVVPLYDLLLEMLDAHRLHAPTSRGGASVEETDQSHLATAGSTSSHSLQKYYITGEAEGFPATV
Format: binding
quantity-kind: Relative binding affinity to the human estradiol (E) receptor (%)

> print(dat)
                              smiles.record  obs.value
1  C[C@H]1C[C@@H]2C[C@H]3[C@@H]4[C@H](C)Cc5cc(O)ccc5[C@H]4CC[C@]3(C)[C@]2(O)C1         38
2  CCC[C@@H]1C[C@@H]2C[C@H]3[C@@H]4CCc5cc(O)ccc5[C@H]4CC[C@]3(C)[C@]2(O)C1          1
3  CCC[C@@H]1Cc2cc(O)ccc2[C@H]2CC[C@@]3(C)[C@@H](C[C@@H]4C[C@@H](C)C[C@@]43O)[C@H]12        0.2
4  CCC[C@H]1C[C@@H]2C[C@H]3[C@@H]4CCc5cc(O)ccc5[C@H]4CC[C@]3(C)[C@]2(O)C1          3
5  C[C@@H]1Cc2cc(O)ccc2[C@H]2CC[C@@]3(C)[C@@H](C[C@H]4CCCC[C@]43O)[C@H]12         11
6  CCC[C@@H]1Cc2cc(O)ccc2[C@H]2CC[C@@]3(C)[C@@H](C[C@H]4CCCC[C@]43O)[C@H]12         16
7  C[C@]12CC[C@@H]3c4ccc(O)cc4CC[C@H]3[C@@H]1C[C@H]1CCCC[C@]12O          1
